TEST SUMMARY: acute toxicity, LD50, rat
PROTOCOL CONDITIONS: in vivo, po, os

MOLECULE	LD50
CC(C)(C)NCC(O)c1cc(Br)no1 (stereo not shown)	> 2000 mg/kg

====

TEST SUMMARY: acute toxicity, LD50, mouse
PROTOCOL CONDITIONS: in vivo, po, os
MEASUREMENT NAME: LD50 (mg/kg)

COMPOUND	MEASUREMENT NAME	ENDPOINT UNIT	RECORDED VALUE
CC(C)(C)NCC(O)c1cc(Br)no1 (stereo not shown)	LD50	mg/kg	770
